test system: MDA-MB-468; test: normalised response (% of control), CellTox Green; higher = less cell death (100 = DMSO, 0 = benzethonium chloride kill control); settings: incubation time: 72 h
readout.type: normalised response (%)
Response body: numeric value in %, unit text excluded.

- compound: "COc1c(C)cnc(Cn2cnc3c(Cl)nc(N)nc32)c1C [BIIB021] (10000 nM)"
  unit.abbrev: "%"
  normalised response: 96.8
- compound: "CN1CCN(c2ccc3nc(-c4c(N)c5c(F)cccc5[nH]c4=O)[nH]c3c2)CC1 [Dovitinib] (1000 nM)"
  unit.abbrev: "%"
  normalised response: 167
- compound: "CCCC(CCC)C(=O)O [Valproic acid] (100000 nM)"
  unit.abbrev: "%"
  normalised response: 123
- compound: "COc1cc(Nc2ncc(F)c(Nc3ccc4c(n3)NC(=O)C(C)(C)O4)n2)cc(OC)c1OC [Tamatinib] (100 nM)"
  unit.abbrev: "%"
  normalised response: 83.2
- compound: "CC(C)(C)c1cc(NC(=O)Nc2ccc(-c3cn4c(n3)sc3cc(OCCN5CCOCC5)ccc34)cc2)no1 [Quizartinib] (100 nM)"
  unit.abbrev: "%"
  normalised response: 139

Given COc1cccc2c1C(=O)c1c(O)c3c(c(O)c1C2=O)C[C@@](O)(C(C)=O)C[C@@H]3O[C@H]1C[C@H](N)[C@H](O)[C@H](C)O1 [Daunorubicin] (100 nM) , respond with its normalised response.
96.9

Give reported normalised response value for COC1=CC(c2cc3ccccc3[nH]2)=N/C1=C\c1[nH]c(C)cc1C [Obatoclax] (100 nM)
96.5
